Molecular target: TRAF2 and NCK-interacting protein kinase (Homo sapiens)
Binary call on ΔTm with cut-off 0.7 °C: strictly below means y, and equality or higher means n.

INSERT INTO assay_data (molecule, class) VALUES
  ('C#Cc1cccc(Nc2ncnc3cc(OCCOC)c(OCCOC)cc23)c1', 'y'),
  ('NCCNS(=O)(=O)c1cccc2c(Cl)cccc12', 'y'),
  ('CCN(CC)CCNC(=O)c1c(C)[nH]c(/C=C2\C(=O)Nc3ccc(Cl)cc32)c1C', 'n'),
  ('O=C1NC(=O)C(c2c[nH]c3ccccc23)=C1c1c[nH]c2ccccc12', 'n'),
  ('Cc1c2ccncc2c(C)c2c1[nH]c1ccccc12', 'y'),
  ('COc1ccc(CNC(=O)Nc2ncc([N+](=O)[O-])s2)cc1', 'y'),
  ('COc1cc2ncnc(Nc3cccc(Br)c3)c2cc1OC', 'n'),
  ('O=c1c(-c2ccc(F)cc2)c(-c2ccncc2)[nH]n1-c1ccc(Cl)cc1', 'y'),
  ('O=c1c(-c2ccc(O)cc2)coc2cc(O)cc(O)c12', 'y'),
  ('Cc1cc2ncc(-c3ccccc3)nc2cc1C', 'y'),
  ('CC(C)(C)n1nc(-c2cccc3ccccc23)c2c(N)ncnc21', 'n'),
  ('O=C(O)Cc1ccc(O)c([N+](=O)[O-])c1', 'y'),
  ('N#CCCc1ccc2c(c1)-c1[nH]c3ccc([N+](=O)[O-])cc3c1CC(=O)N2', 'n'),
  ('CCOC(=O)c1c(C)[nH]c(/C=C2\C(=O)Nc3ccccc32)c1C', 'y'),
  ('Oc1ccc(-c2nc(-c3ccc(F)cc3)c(-c3ccncc3)[nH]2)cc1', 'n'),
  ('O=C1c2ccccc2-[n+]2ccc3c([nH]c4ccccc43)c21 [FASCAPLYSIN CHLORIDE]', 'y'),
  ('CN(C)CC1CCn2c(c(C3=C(c4c[nH]c5ccccc45)C(=O)NC3=O)c3ccccc32)C1 (configuration not stated)', 'y'),
  ('Oc1cccc(-c2nc(N3CCOCC3)c3oc4ncccc4c3n2)c1', 'y'),
  ('CC(C)(C)n1nc(-c2ccc(Cl)cc2)c2c(N)ncnc21', 'n'),
  ('NC1=N/C(=C2/CCNC(=O)c3[nH]ccc32)C(=O)N1', 'n'),
  ('O=c1ccc2ccc(O)c(O)c2o1', 'y'),
  ('CCCNC(=O)Nc1ccc(Oc2ncnc3cc(OC)c(OC)cc23)cc1Cl', 'y'),
  ('CC(C)c1nn(-c2c(Cl)cccc2Cl)c2nc(Cc3ccc(OCCO)cc3)[nH]c(=O)c12', 'y'),
  ('CC(C)(C)c1nc2c3ccc(F)cc3c3c(=O)[nH]ccc3c2[nH]1', 'n'),
  ('CC(C)n1cnc2/c(=N/c3cccc(Cl)c3)nc(NCCO)[nH]c21', 'n'),
  ('O=C1Cc2c([nH]c3ccc([N+](=O)[O-])cc23)-c2ccccc2N1', 'n'),
  ('CSc1nc(-c2ccc(F)cc2)c(-c2ccnc(NC(C)c3ccccc3)c2)[nH]1 (racemic)', 'y'),
  ('N=C(N)NCCNS(=O)(=O)c1cccc2cnccc12', 'y'),
  ('O=Nc1c(-c2c(O)[nH]c3ccccc23)[nH]c2ccccc12', 'n'),
  ('O=C(Nc1cccc(Nc2nccc(Nc3cccc(C(F)(F)F)c3)n2)c1)C1CC1', 'y'),
  ('C[C@@H](N)[C@H]1CC[C@H](C(=O)Nc2ccncc2)CC1', 'y'),
  ('COc1cc2ncnc(Nc3ccc(NC(=O)c4ccccc4)cc3)c2cc1OC', 'n'),
  ('C/C(O)=C(\C#N)C(=O)Nc1cc(Br)ccc1Br', 'y'),
  ('O=C1C(Cl)=C(N2C(=O)CCC2=O)C(=O)c2ccccc21', 'y'),
  ('O=C1NC(=O)c2c1c1c3ccccc3[nH]c1n1cncc21 [ISOGRANULATIMIDE]', 'y'),
  ('C[S+]([O-])c1ccc(-c2nc(-c3ccc(F)cc3)c(-c3ccncc3)[nH]2)cc1 (configuration not stated)', 'n'),
  ('Cn1cc(/C=C2/C(=O)Nc3ccc(S(N)(=O)=O)cc32)c2ccccc21', 'n'),
  ('Cc1cc(C=C2C(=O)C=CC2=O)cc(C)c1O', 'y'),
  ('CCOc1cc(/C=C(\C#N)C(N)=O)cc(CSc2ccccc2)c1O', 'y'),
  ('C[S+]([O-])c1ccc(CSc2nc(-c3ccc(F)cc3)c(-c3ccncc3)[nH]2)cc1 (configuration not stated)', 'y');

###

Measured ΔTm, listed per entry.
Target: Serine/threonine-protein kinase Nek6 (Homo sapiens) (UniProt Q9HC98)
Sequence (Q9HC98 whole entry): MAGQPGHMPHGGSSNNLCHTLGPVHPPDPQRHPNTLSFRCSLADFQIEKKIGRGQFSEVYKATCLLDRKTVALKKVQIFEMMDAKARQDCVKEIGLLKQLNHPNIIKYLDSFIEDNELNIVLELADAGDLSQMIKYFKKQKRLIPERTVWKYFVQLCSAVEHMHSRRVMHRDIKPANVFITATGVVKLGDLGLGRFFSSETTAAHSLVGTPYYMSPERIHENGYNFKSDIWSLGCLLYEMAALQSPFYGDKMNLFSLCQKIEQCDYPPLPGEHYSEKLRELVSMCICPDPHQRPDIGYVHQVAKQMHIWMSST
outcome_measure: ΔTm

INSERT INTO results (structure_smiles, outcome_measure, reported_result) VALUES
  ('NC(=O)c1ccc2[nH]c(-c3ccc(Oc4ccc(Cl)cc4)cc3)nc2c1', 'ΔTm', '0.4 °C'),
  ('C/C(O)=C(\C#N)C(=O)Nc1cc(Br)ccc1Br', 'ΔTm', '-0.2 °C'),
  ('COc1cc(/C=C/C(=O)CC(=O)/C=C/c2ccc(O)c(OC)c2)ccc1O', 'ΔTm', '0.9 °C'),
  ('O=C1Cc2c([nH]c3ccc(Br)cc23)-c2ccccc2N1', 'ΔTm', '0.4 °C'),
  ('CC(C)(C)c1nc2c3ccc(F)cc3c3c(=O)[nH]ccc3c2[nH]1', 'ΔTm', '0.3 °C'),
  ('O=C1Nc2ccccc2/C1=C1/Nc2ccccc2/C1=N\O', 'ΔTm', '1.2 °C'),
  ('N#C/C(=C\c1ccc(O)c(O)c1)C(=O)Nc1ccccc1', 'ΔTm', '0.9 °C'),
  ('O=C1Nc2ccc(I)cc2/C1=C\c1cc(Br)c(O)c(Br)c1', 'ΔTm', '0 °C'),
  ('NC1=N/C(=C2/CCNC(=O)c3[nH]ccc32)C(=O)N1', 'ΔTm', '-0.5 °C'),
  ('CCOc1cc2ncnc(Nc3cccc(Br)c3)c2cc1OCC', 'ΔTm', '0.7 °C');

###

Mitogen-activated protein kinase 6 (Homo sapiens) measurements of ΔTm, listed per entry.
outcome_measure: ΔTm (°C)

INSERT INTO results (compound, reported_result) VALUES
  ('O=C1Nc2ccccc2/C1=C/c1cnc[nH]1', 0.5),
  ('COc1ccc(S(=O)(=O)N(CCO)c2ccccc2CN(C)C/C=C/c2ccc(Cl)cc2)cc1', -0.5),
  ('CN[C@@H]1CC2O[C@@](C)([C@@H]1OC)n1c3ccccc3c3c4c(c5c6ccccc6n2c5c31)C(=O)NC4', 1),
  ('Ic1cccc(CSc2nnc(-c3ccncc3)o2)c1', -0.2),
  ('CN(C)c1ncnc2nc[nH]c12 [DIMETHYLADENINE]', -0.1);

###

Assay: Antiproliferative activity against human SUM-159 cells
Assay type: functional, cell-based
Conditions: SUM-159-PT
pIC50: −log10 of the molar value.
outcome_measure: pIC50

INSERT INTO assay_data (structure_smiles, reported_result) VALUES
  ('CCOc1ccc(/C=C2/SC(=O)N(CCN)C2=O)cc1', '≥ 4.60');

###

Target: Cyclin-dependent kinase 16 (Homo sapiens) (UniProt Q00536)
Sequence (Q00536 whole entry): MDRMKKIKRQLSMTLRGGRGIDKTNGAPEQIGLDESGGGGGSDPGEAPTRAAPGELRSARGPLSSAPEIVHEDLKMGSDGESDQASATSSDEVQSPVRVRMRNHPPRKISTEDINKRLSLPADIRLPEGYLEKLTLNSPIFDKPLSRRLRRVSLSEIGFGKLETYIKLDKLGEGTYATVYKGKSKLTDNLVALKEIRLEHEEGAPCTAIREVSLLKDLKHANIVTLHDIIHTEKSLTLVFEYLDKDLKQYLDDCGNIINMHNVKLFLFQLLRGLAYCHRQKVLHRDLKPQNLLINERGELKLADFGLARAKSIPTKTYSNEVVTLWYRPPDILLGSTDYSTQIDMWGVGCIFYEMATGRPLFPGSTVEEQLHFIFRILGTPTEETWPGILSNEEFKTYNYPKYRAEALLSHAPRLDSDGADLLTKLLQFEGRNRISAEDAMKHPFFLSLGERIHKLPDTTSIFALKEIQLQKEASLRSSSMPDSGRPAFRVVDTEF
Use true (1) when the recorded ΔTm is no lower than -0.4 °C; use false (0) when it is lower.

INSERT INTO assay_data (compound, assayed_target, class) VALUES
  ('NC(=O)c1ccc2[nH]c(-c3ccc(Oc4ccc(Cl)cc4)cc3)nc2c1', 'Cyclin-dependent kinase 16 (Homo sapiens) (UniProt Q00536)', 'false (0)'),
  ('Nc1n[nH]c2nc3ccccc3nc12', 'Cyclin-dependent kinase 16 (Homo sapiens) (UniProt Q00536)', 'true (1)'),
  ('COc1cc2ncnc(Nc3cccc(O)c3)c2cc1OC', 'Cyclin-dependent kinase 16 (Homo sapiens) (UniProt Q00536)', 'false (0)'),
  ('COc1ccc(CNc2nc(N(CCO)CCO)nc3c2ncn3C(C)C)cc1', 'Cyclin-dependent kinase 16 (Homo sapiens) (UniProt Q00536)', 'true (1)'),
  ('O=C(Nc1cccc(Nc2cc(Nc3cccc(C(F)(F)F)c3)ncn2)c1)C1CC1', 'Cyclin-dependent kinase 16 (Homo sapiens) (UniProt Q00536)', 'true (1)'),
  ('Brc1c(Br)c(Br)c2[nH]nnc2c1Br', 'Cyclin-dependent kinase 16 (Homo sapiens) (UniProt Q00536)', 'false (0)'),
  ('NC1=NC(=O)/C(=C2\CCNC(=O)c3[nH]c(Br)cc32)N1', 'Cyclin-dependent kinase 16 (Homo sapiens) (UniProt Q00536)', 'true (1)'),
  ('Cl.Cn1cc(C2=C(c3ccc4cc5n(c4c3)CCC(CN)C5)C(=O)NC2=O)c2ccccc21 (stereo not given)', 'Cyclin-dependent kinase 16 (Homo sapiens) (UniProt Q00536)', 'true (1)'),
  ('COc1ccc(Cl)cc1NC(=O)Nc1cc(C)nc2ccccc12', 'Cyclin-dependent kinase 16 (Homo sapiens) (UniProt Q00536)', 'true (1)');
